Test system: DU-145
Assay: NCI tumour cell line growth inhibition, 48 h
The source made the active and inactive calls. Cut-off read from the data, not from the text of the source: active = GI50 up to about 1.1 µM and inactive = higher.
Labels: 1.0 = active, 0.0 = inactive

>>> cat("O=CN(CCN1CCCC1)C1CCc2cc(Cl)c(Cl)cc2C1 (stereo not drawn)")
0.0
>>> cat("COc1ccc(N2CC(=O)N(C(=O)COc3ccc(OCC(=O)N4C(=O)CN(c5ccc(OC)cc5)C4=S)cc3)C2=S)cc1")
0.0
>>> cat("O=C1/C(=C/c2ccc(Cl)cc2)CNC/C1=C\\c1ccc(Cl)cc1")
0.0
>>> cat("C/C(=N\\N=C(\\N)SB(F)F)c1ccc2ccccc2c1")
0.0
>>> cat("O=C(O)c1cc(CCc2cc(O)ccc2O)ccc1O")
0.0
>>> cat("C/C(=N\\NC(=S)NNC(=S)N(C)c1ccccc1)c1ccccn1")
1.0
>>> cat("Cc1c2c(cc3c1C(=O)C(O)=C([C@@H](C)CO)C3=O)C(C)(C)CCC2")
0.0
>>> cat("O=C(NCCCNC(=O)c1ccc2c(O)c(O)ccc2c1)c1ccc2c(O)c(O)ccc2c1")
0.0
>>> cat("N#C/C(=C\\c1ccc2ccccc2c1)C(=O)c1ccccc1")
0.0
>>> cat("O=C1/C(=C/c2ccc3c(c2)OCO3)Sc2scc(-c3ccc(O)c(O)c3)[n+]21")
0.0
>>> cat("COC(=O)c1ccc(-n2c(C)nc(=O)c(-c3ccccc3)c2C)cc1")
0.0
>>> cat("CSC(=S)N/N=C/c1ccccc1")
0.0
>>> cat("CN1N(c2ccccc2)C(=O)C2=NC=C(C(=O)c3ccccc3)C(=N)C21C (stereo not drawn)")
0.0

* * *

System: U-251
Assay: NCI tumour cell line growth inhibition, 48 h
The source made the active and inactive calls. No stated cut-off is given here; in the data, active = GI50 up to about 1.1 µM and inactive = higher.
Labels: 1.0 (active), 0.0 (inactive)

>>> cat("CC(CN(C)C)C(=O)c1ccccc1 (stereo not given)")
0.0
>>> cat("CC(C)Cc1ccc(C(C)CC2=CCC(CN(C)C)C2=O)cc1 (stereo not given)")
0.0
>>> cat("CSc1nc(NC2OCC(OC(C)=O)C(OC(C)=O)C2OC(C)=O)c2c(n1)OCC2=O (stereo not given)")
0.0
>>> cat("O=C1C2c3[nH]c4ccccc4c3C3CCCCC3C2C(=O)N1c1ccccc1 (stereo not given)")
0.0
>>> cat("Cc1cc(NS(=O)(=O)c2ccc(Nc3c4ccccc4nc4c(C(=O)N5CCN(CCO)CC5)ccc(Cl)c34)cc2)no1")
0.0
>>> cat("CC(C)(/C=N/O)/[N+]([O-])=C/c1ccccc1")
0.0
>>> cat("CC(=O)c1cccc(NC(=O)C(=O)Nn2c(N)nnc2N)c1")
0.0
>>> cat("Cc1ccc(C2=Nc3ccccc3SC(c3cccc([N+](=O)[O-])c3)C2)cc1 (stereo not given)")
0.0
>>> cat("Clc1ccc(Cn2cc(/C=N/n3cnnc3)c3ccccc32)cc1")
0.0
>>> cat("O=C(c1ccc(Cl)cc1)N(C(=S)OC12CC3CC(CC(C3)C1)C2)c1ccccc1")
0.0
>>> cat("CC(C)(C)C1=NC(=P(c2ccccc2)(c2ccccc2)c2ccccc2)C(=O)O1")
0.0
>>> cat("NC(=S)N/N=C/c1ccc(OC(=O)COc2ccccc2Cl)cn1")
0.0
>>> cat("COc1ccccc1/C=C1\\NC(=S)N(/C=C2\\C(=O)Oc3ccccc3C2=O)C1=O")
0.0
>>> cat("O=C(/C=C/c1ccc(Cl)c(Cl)c1)C1CCC(Cl)CC1 (stereo not given)")
0.0
>>> cat("COC(=O)CC(CNC(=O)OCc1ccccc1)OCc1ccc(OC)cc1 (stereo not given)")
0.0
>>> cat("O=C(c1cccnc1)N1N=C(c2ccc(Cl)cc2)CC1(O)c1cc(F)c(Cl)cc1Cl (stereo not given)")
0.0
>>> cat("CCOC(=O)[C@@H]1C[C@H]1c1ccc(O)c(O)c1")
0.0
>>> cat("CCC(C)(C)c1ccc(OCCCCNC(=O)c2ccc3ccccc3c2O)c(C(C)(C)CC)c1")
0.0
>>> cat("CC1C[C@H](C)CC(C(O)CC2CC(=O)N(Cc3ccccc3)C(=O)C2)C1O (stereo not given in full)")
0.0
>>> cat("CCN(CC)[C@@H]1c2cc3c(cc2C(c2cc(OC)c(O)c(OC)c2)C2C(=O)CO[C@@H]21)OCO3 (stereo not given in full)")
0.0
>>> cat("CC(C)C1CNC(=O)C2(/C=N/C(C(C)C)CNC(=O)C3(/C=N/1)CCCO3)CCCO2 (stereo not given)")
0.0
>>> cat("O=C1c2c(O)cccc2C(C(=O)CCCCCC(=O)C2c3cccc(O)c3C(=O)c3c(O)cccc32)c2cccc(O)c21")
1.0
>>> cat("CCO/C=N/C1=C(C#N)C(c2ccc(Cl)cc2)c2c(-c3ccccc3)nn(-c3ccccc3)c2O1 (stereo not given)")
0.0
>>> cat("CC(=O)C(CN(C)Cc1ccccc1)C(c1ccccc1)c1c(O)c2ccccc2oc1=O (stereo not given)")
0.0
>>> cat("CCSc1nc(N2CCOCC2)c2cn[nH]c2n1")
0.0
>>> cat("CCOC(=O)c1c(NC(=O)c2ccc(Br)cc2)sc2c1CCCC2")
0.0
>>> cat("CCOC(=O)Cn1nc2ccc(Nc3c(C)[n+]([O-])c4cc(F)c(OCC)cc4[n+]3[O-])cc2n1")
0.0
>>> cat("COc1ccc(/C=C2\\Oc3cc(OC(C)=O)ccc3C2=O)cc1")
0.0
>>> cat("NC1=NS(=O)(=O)Nc2nc(-c3ccc(Cl)cc3)[nH]c21")
0.0
>>> cat("O=C(CC(NC(=O)C(F)(F)F)C(=O)O)OCc1ccccc1 (stereo not given)")
0.0
>>> cat("COc1cc2oc(=O)ccc2cc1C(=O)CC(C)C")
0.0
>>> cat("COc1ccc(OC)c(CNc2ccc(O)c(C(=O)NCCc3ccc(F)cc3)c2)c1")
0.0
>>> cat("Cc1ccc(C2=Nc3c(c(C)nn3-c3ccccc3)N=C(C(=O)O)C2)cc1")
0.0
>>> cat("O=S(=O)(O)c1ccc(/N=N/c2ccc(/N=N/c3c(O)ccc4ccccc34)c(S(=O)(=O)O)c2)cc1")
0.0
>>> cat("C/C(=N\\c1cccc(Cl)c1)c1ccncc1")
0.0

src = ChEMBL document CHEMBL1201862
